molecular target: COP1-AGTL (Homo sapiens) (UniProt Q96AD5+Q8NHY2); experiment: Induction of COP1 to ATGL stabilization (unknown origin) expressed in HEK293-A cells assessed as reduction in ATGL ubiquitination incubated for 6 hrs by Western blotting analysis; type: cell-based
Sequence (Q8NHY2 whole entry, looked up): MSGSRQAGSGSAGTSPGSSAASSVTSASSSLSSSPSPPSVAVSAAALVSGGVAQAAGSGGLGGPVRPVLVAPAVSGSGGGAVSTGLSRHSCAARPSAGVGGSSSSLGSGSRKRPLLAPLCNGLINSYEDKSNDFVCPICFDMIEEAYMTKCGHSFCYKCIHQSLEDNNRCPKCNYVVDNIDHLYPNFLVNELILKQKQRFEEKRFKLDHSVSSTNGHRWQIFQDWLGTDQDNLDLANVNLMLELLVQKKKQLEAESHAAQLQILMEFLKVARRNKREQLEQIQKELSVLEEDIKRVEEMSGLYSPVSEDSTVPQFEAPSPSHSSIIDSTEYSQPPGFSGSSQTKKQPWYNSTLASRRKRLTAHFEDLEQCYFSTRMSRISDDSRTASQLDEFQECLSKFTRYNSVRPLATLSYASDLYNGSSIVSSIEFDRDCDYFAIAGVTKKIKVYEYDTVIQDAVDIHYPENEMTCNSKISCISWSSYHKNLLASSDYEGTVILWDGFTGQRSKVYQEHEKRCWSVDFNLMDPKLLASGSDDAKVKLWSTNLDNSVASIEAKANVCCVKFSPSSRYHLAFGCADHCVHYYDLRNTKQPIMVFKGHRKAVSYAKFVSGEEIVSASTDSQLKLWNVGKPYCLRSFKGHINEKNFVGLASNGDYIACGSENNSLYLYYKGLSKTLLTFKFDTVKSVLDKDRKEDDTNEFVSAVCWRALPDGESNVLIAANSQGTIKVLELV
Sequence (Q96AD5 whole entry, looked up): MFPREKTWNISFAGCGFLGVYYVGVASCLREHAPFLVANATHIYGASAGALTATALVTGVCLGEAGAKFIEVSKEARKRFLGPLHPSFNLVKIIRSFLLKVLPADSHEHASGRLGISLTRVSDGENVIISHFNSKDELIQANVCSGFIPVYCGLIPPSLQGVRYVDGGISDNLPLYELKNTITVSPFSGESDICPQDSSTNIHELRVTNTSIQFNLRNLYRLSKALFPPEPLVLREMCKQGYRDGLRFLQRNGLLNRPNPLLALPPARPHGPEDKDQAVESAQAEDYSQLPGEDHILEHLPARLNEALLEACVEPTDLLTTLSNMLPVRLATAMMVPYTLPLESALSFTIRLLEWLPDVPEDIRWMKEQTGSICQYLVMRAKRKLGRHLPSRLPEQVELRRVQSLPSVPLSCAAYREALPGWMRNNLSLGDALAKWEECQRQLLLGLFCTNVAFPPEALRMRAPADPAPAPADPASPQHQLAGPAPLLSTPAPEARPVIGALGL
Activity calls are given as the source filed them. No cut-off for these calls is given here.
Return exactly one item of active, inactive

Example entries begin here.
INSERT INTO results (compound, class_name) VALUES
  ('COCCn1cnc2ccc(NC(=O)Nc3cccc(C(C)=O)c3)c(C3CCNCC3)c2c1=O', 'inactive'),
  ('CC(=O)c1cccc(NC(=O)Nc2ccc3ncn(CCCN4CCOCC4)c(=O)c3c2)c1', 'inactive'),
  ('CC(=O)c1cccc(NC(=O)Nc2ccc3ncn(CCN(C)C)c(=O)c3c2)c1', 'inactive'),
  ('COCCn1cnc2ccc(NC(=O)Nc3ccccc3OC)cc2c1=O', 'inactive'),
  ('COCCn1cnc2ccc(NC(=O)Nc3cccc(C(=O)c4ccccc4)c3)cc2c1=O', 'inactive');

Req: Recorded test outcome, item CCn1cnc2ccc(NC(=O)Nc3cccc(C(C)=O)c3)cc2c1=O
Resp: inactive

###

experiment: Stability in mouse plasma assessed as compound remaining after 2 hrs; assay type: ADME, cell-free; conditions: read-out: Stability
VALUE_TYPE: remaining at 2 h (%)

Example results:
INSERT INTO results (molecule, reported_value) VALUES
  ('COCCn1c(=O)c2cc(NC(=O)Nc3cccc(C(C)=O)c3)ccc2n(C(C)C)c1=O', 90.7),
  ('COCCn1c(=O)c2cc(NC(=O)Nc3cccc(C(C)=O)c3)ccc2n(CCN2CCCCC2)c1=O', 103);

a: COCCn1cnc2ccc(NC(=O)Nc3cccc(C(O)C(F)(F)F)c3)cc2c1=O (stereo not given)
b: COCCn1cnc2ccc(NC(=O)Nc3cccc(C(C)=O)c3)cc2c1=O
c: COCCn1cnc2ccc(NC(=O)Nc3cccc(C(=O)C(F)(F)F)c3)cc2c1=O
Req: Sort these molecules on remaining at 2 h so the largest reading comes first. API: response body holds the labels in the requested order.
Resp: a, c, b
(a: 118%, c: 52.6%, b: 14.2%)

###

assay: Lipophilicity, logD of compound; assay type: physicochemical; settings: octanol/water
VALUE_TYPE: logD

Example results:
INSERT INTO results (compound, value_type, reported_value) VALUES
  ('COCCn1cnc2ccc(NC(=O)Nc3cccc(OC)c3)cc2c1=O', 'logD', 3.02),
  ('COCCn1cnc2ccc(NC(=O)Nc3cccc(C(C)=O)c3)c(Br)c2c1=O', 'logD', 1.95),
  ('COCCn1c(=O)c2cc(NC(=O)Nc3cccc(C(C)=O)c3)ccc2n(CCN2CCCCC2)c1=O', 'logD', 2.78);

I: COCCn1c(=O)c2cc(NC(=O)Nc3cccc(C(C)=O)c3)ccc2n(CCN2CCCC2)c1=O
II: COCCn1cnc2ccc(NC(=O)Nc3cccc(C(=O)C(F)(F)F)c3)cc2c1=O
Req: Which is greater in logD, the first item I or the second item II ? Mark your answer with the label of the selected entry.
Resp: II
(II: 4.25, I: 2.58)

###

assay: Metabolic stability in human liver microsomes assessed as intrinsic clearance per mg of protein; assay type: ADME, Microsome; details: read-out: CLH
VALUE_TYPE: microsomal CLint (µL/min/mg)

a: COCCn1cnc2ccc(NC(=O)Nc3cccc(C(=O)C(F)(F)F)c3)cc2c1=O
b: COCCn1c(=O)c2cc(NC(=O)Nc3cccc(C(C)=O)c3)ccc2n(CCN2CCCC2)c1=O
c: COCCn1cnc2ccc(NC(=O)Nc3cccc(C(O)C(F)(F)F)c3)cc2c1=O (stereo not drawn)
Req: // sort entries: microsomal CLint, high to low API: response body holds the labels in the requested order.
Resp: c, a, b
(c: 15.3 µL/min/mg, a: 7.7 µL/min/mg, b: 4.6 µL/min/mg)
